Where these numbers come from: patent US20110178104A1

Please provide measured UFH (aPTT) EC50 for the entries that follow.
Test system: unfractionated heparin (UFH)
Assay: aPTT clotting assay, UFH 0.2 U/mL in plasma (Example 7)
Format: biochemical
Details: UFH 0.2 U/mL in plasma
Give bare numbers, in µg/mL.

[[record]]
compound = "COc1ccc(NC(=O)[C@H](CCCCN)NC(=O)c2cc(NC(=O)[C@H](CCCCN)NC(=O)c3cc(NC(=O)[C@H](CCCCN)NC(=O)c4cc(NC(=O)[C@H](C)N)ccc4OC)ccc3OC)ccc2OC)cc1C(N)=O [Compound 95]"
target_desc = "unfractionated heparin (UFH)"
quantity = "UFH (aPTT) EC50"
unit_string = "µg/mL"
reading = 2.42


Report UFH (aPTT) EC50 for each item below.
1. COc1ccc(NC(=O)[C@H](CCCCN)NC(=O)c2cc(NC(=O)[C@H](CCCCN)NC(=O)c3cc(NC(=O)[C@H](CCCCN)NC(=O)c4cc(NC(=O)[C@@H](N)CCCCN)ccc4OC)ccc3OC)ccc2OC)cc1C(=O)N[C@@H](Cc1ccccc1)C(=O)O [Compound 110]
2. COc1ccc(NC(=O)[C@H](CCCCN)NC(=O)c2cc(NC(=O)[C@H](CCCCN)NC(=O)c3cc(NC(=O)[C@H](CCCCN)NC(=O)c4ccc(NC(=O)[C@@H](N)CCCCN)cc4)ccc3OC)ccc2OC)cc1C(N)=O [Compound 126]

1: 2.31; 2: 9.07

What UFH (aPTT) EC50 value was documented for this compound, COc1ccc(NC(=O)[C@H](CCCCN)NC(=O)c2cc(NC(=O)[C@H](CCCCN)NC(=O)c3cc(NC(=O)[C@H](CCCCN)NC(=O)c4cc(NC(=O)[C@@H](N)CCCCN)ccc4SC)ccc3OC)ccc2OC)cc1C(N)=O [Compound 130] ?
2.50
